FYI, the data here is from the supplement of paper PMC9112550.

system: Escherichia coli TOP10; assay: shrunken log2 fold change of peptide-encoding DNA abundance (4.5 h post-induction vs induction); higher = less antimicrobial activity (less host growth inhibition); details: time post-induction: 4.5 h; library: site-saturation at positions 5, 18, 19, 20;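 note: peptides expressed intracellularly from a pBAD plasmid library in pooled LB shake-flask culture, induced with 0.3% L-arabinose, DNA abundance read by NGS, three biological replicates, DESeq2 with apeglm shrinkage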
Output True for shrunken log2 fold change not less than -0.09; output False otherwise.

Is the recorded value of shrunken log2 fold change equal to or greater than -0.09 for this sequence? RRIRQRPPRLPRPRPRPFGFPRP
False

Item RRIRKRPPRLPRPRPRPKYLPRP with shrunken log2 fold change of -0.09 or above?
True

Hi, just wondering whether RRIRYRPPRLPRPRPRPGLKPRP shows shrunken log2 fold change of -0.09 or higher.
True

I'd appreciate it if you could say whether RRIRRRPPRLPRPRPRPTPMPRP has shrunken log2 fold change at least equal to -0.09.
True

Quick check, shrunken log2 fold change >= -0.09? RRIRSRPPRLPRPRPRPRSQPRP
True

Reported shrunken log2 fold change at or above -0.09? RRIRERPPRLPRPRPRPKNCPRP
False

Check the entry RRIRWRPPRLPRPRPRPFHVPRP : does shrunken log2 fold change equal or exceed -0.09?
True

Hello, I need to know if RRIRIRPPRLPRPRPRPTCHPRP has measured shrunken log2 fold change not below -0.09. Thanks!
False
